assay: Therapeutic index, ratio of IC50 for human Huh7.5 cells to EC50 for HCV; format: cell-based, Huh-7; details: read-out: Ratio IC50/EC50
// label = MET if selectivity ratio is not less than 5, otherwise NOT MET

Check out these entries, answers already filled in.
Cc1cc2c(cc1O)[C@]1(C)CC[C@H](O)C(C)(C)[C@H]1CC2 NOT MET
Cc1cc2c(cc1O)[C@]1(C)CCC(=O)C(C)(C)[C@H]1C=C2 NOT MET
COc1cc2c(cc1C)[C@H]1C[C@@H]3C(C)(C)[C@H](O)CC[C@@]23CO1 MET
C=CCc1ccc(O)c(-c2ccc(O)c(CC=C)c2)c1 MET
COc1cc2c(cc1C)C=C[C@@H]1C(C)(C)[C@H](O)CC[C@@]21C NOT MET

Problem: Could you tell me if the measured selectivity ratio of COc1cc2c(cc1C)CC[C@@H]1C(C)(C)[C@@]3(O)CC[C@@]21CO3 reaches 5 or more?
Solution: MET
